This collection of values is drawn from the Human Domainome abundance scans (Beltran et al. 2025).

B1: POU domain, class 2, transcription factor 1, residues 285 to 354; numbered along this chain, P14859 (parent)
chain: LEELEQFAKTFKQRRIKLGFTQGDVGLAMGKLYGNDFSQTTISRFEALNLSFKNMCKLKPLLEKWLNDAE

# Variants of: B1
# ASSAY_INFO: abundance fitness (aPCA) (normalised: wild type 0, dead -1); higher = more abundant; growth selection in yeast, the domain comes from the species named
# PARTICULARS: Homo sapiens
PROPERTY_MEASURED: abundance fitness
Output spec: single numeric token, no unit.

T40S | -0.007
K57R | -0.047
L66R | -0.667
F20V | -0.024
A69C | -0.001
G26P | -0.276
E70D | -0.029
L1M | 0.073

*Q* Which measured abundance fitness value corresponds to L50N ?
*A* -0.385

*Q* Query: abundance fitness; subject: L27A
*A* 0.073

*Q* # input variant: L58E ; wanted: its abundance fitness
*A* -0.526

*Q* Can you look up the measured abundance fitness of A69S for me?
*A* -0.004

*Q* What value of abundance fitness has been reported for the following variant? F45H
*A* -0.952
